- system.under.test: ATP-dependent Clp protease proteolytic subunit (Bacillus subtilis (strain 168))
- test.name: qHTS Assay for Activators of ClpP; note: the source files actives as falling curves though it sought activators and does not explain the sign; nearly all actives have a fitted effect of over 65% in size
- condition.details: purified B. subtilis ClpP, FRET peptide cleavage, 20 min; series mostly up to 57.5 µM
- Source text: The Clp protease proteolytic subunit (ClpP) is the core unit of the Clp complex belonging to the peptidase family S14 that hydrolyzes protein into small peptides in the presence of ATP and magnesium. It is ubiquitously expressed and is the major protease in bacteria. […] Unlike common antibiotics that simply interfere with the essential enzyme activity, ADEP binding activates the ClpP core in the absence of the regulatory Clp-ATPases leading to uncontrolled proteolysis and eventually cell death. […]
About 6,400 (1.9%) of roughly 340,000 compounds were called active. Roughly 4% stayed inconclusive and do not appear here. This is one part of a sample in which actives are shown more often than they occur.
test.readout: outcome

{"columns": ["compound", "reported.measurement"],
 "data": [
  ["Cc1ccccc1OCc1ccc(-c2nc(C#N)c(N3CCCCC3)o2)o1", "inactive"],
  ["Cc1nc(N=C(N)N)nc2c(C)cccc12", "inactive"],
  ["O=C1O/C(=C\\c2ccc(O)cc2)C(O)=C1c1ccc(O)cc1", "inactive"],
  ["O=C(Nc1cccc(C(=O)O)c1)/C(=C\\c1ccccc1)NC(=O)c1ccc(Br)o1", "inactive"],
  ["CCCNC(=O)C1(C)CCN(C(=O)c2cc(F)ccc2C)C1 (stereo unspecified)", "inactive"],
  ["CC(=O)Oc1ccc(-c2nc3c(C)cccc3c(=O)o2)cc1", "inactive"]
]}

---

- system.under.test: ATP-dependent Clp protease proteolytic subunit (Bacillus subtilis (strain 168))
- test.name: qHTS Assay for Activators of ClpP; note: the source files actives as falling curves though it sought activators and does not explain the sign; nearly all actives have a fitted effect of over 65% in size
- condition.details: purified B. subtilis ClpP, FRET peptide cleavage, 20 min; series mostly up to 57.5 µM
Hit rate of the full screen: of about 340,000 compounds, about 6,400 (1.9%) were called active. Another 4% or so got no clear call; they are omitted. Calls come from the whole dose curve; as a rule, active = well fitted falling curve with a large enough effect; inconclusive = small, poorly fitted or top-dose-only effect; inactive = no such curve, though single readings can be large or run the other way. The entries come from a sample that favours actives as a whole.
Outcome codes: active, inactive

{"columns": ["compound", "system.under.test", "assigned.class"],
 "data": [
  ["Cc1nn(-c2ccccc2)nc1C(=O)OCC(=O)N1CCCCC1C (stereo not given)", "ATP-dependent Clp protease proteolytic subunit (Bacillus subtilis (strain 168))", "active"],
  ["CCc1nc2ccc(C(=O)NC3CCN(Cc4ccccc4)CC3)cn2c1N(C)CCN1CCOCC1", "ATP-dependent Clp protease proteolytic subunit (Bacillus subtilis (strain 168))", "inactive"],
  ["C[C@@H]1CN([C@@H](C)CO)C(=O)c2c(c3ccccc3n2C)-c2ccccc2CO[C@H]1CN(C)C(=O)C1CC1", "ATP-dependent Clp protease proteolytic subunit (Bacillus subtilis (strain 168))", "inactive"],
  ["COc1ccc(-c2nc(SCC(=O)N3CCOCC3)n[nH]2)cc1", "ATP-dependent Clp protease proteolytic subunit (Bacillus subtilis (strain 168))", "active"],
  ["C=CCn1c(SCn2nnc3ccccc3c2=O)nnc1-c1ccc(Cl)cc1", "ATP-dependent Clp protease proteolytic subunit (Bacillus subtilis (strain 168))", "inactive"],
  ["Cc1cccc(CN2Cc3cccc4c3[C@H](C=CC4)CC2=S)c1", "ATP-dependent Clp protease proteolytic subunit (Bacillus subtilis (strain 168))", "inactive"],
  ["CCOC(=O)c1[nH]c2ccc(C)cc2c1N=C(C)N(C)C", "ATP-dependent Clp protease proteolytic subunit (Bacillus subtilis (strain 168))", "inactive"],
  ["COc1ccc(N2CCN(C(=O)CSc3nnc4ncccn34)CC2)cc1", "ATP-dependent Clp protease proteolytic subunit (Bacillus subtilis (strain 168))", "inactive"],
  ["[O-][n+]1onc2c1CCc1[nH]c(-c3ccccc3)nc1-2", "ATP-dependent Clp protease proteolytic subunit (Bacillus subtilis (strain 168))", "active"],
  ["Cc1sc2c(c1C)c(=O)n(-c1ccccc1)c(=O)n2CC(=O)NCC1CCCO1 (stereo not given)", "ATP-dependent Clp protease proteolytic subunit (Bacillus subtilis (strain 168))", "inactive"],
  ["CCOc1cc(-c2cc(-c3ccc(OC)cc3)nc(N)c2C#N)ccc1O", "ATP-dependent Clp protease proteolytic subunit (Bacillus subtilis (strain 168))", "inactive"],
  ["CC1CCCC(C)N1C(=O)COC(=O)c1ccccc1C(=O)c1ccccc1 (stereo not given)", "ATP-dependent Clp protease proteolytic subunit (Bacillus subtilis (strain 168))", "inactive"],
  ["C=CCn1c(-c2ccc(Cl)cc2)ccc(C#N)c1=O", "ATP-dependent Clp protease proteolytic subunit (Bacillus subtilis (strain 168))", "active"],
  ["COCCNC(=O)CSc1nc(N)c(NC(=O)c2ccco2)c(=O)[nH]1", "ATP-dependent Clp protease proteolytic subunit (Bacillus subtilis (strain 168))", "inactive"],
  ["CC(C)Cc1ccc(-c2cc3nc(NCc4cccc(Cl)c4)ccn3n2)cc1", "ATP-dependent Clp protease proteolytic subunit (Bacillus subtilis (strain 168))", "inactive"]
]}

Data provenance is PubChem BioAssay AID651965.
